Tested on: A2780 cells
Test: In vitro cytotoxicity, MTS assay
Type: cell-based, human
Conditions: after a 72 h incubation, read-out: Cisplatin IC50
Protocol: ES-2, OVCAR-3, SKOV-3, A2780, and A2780/CDDP cells were seeded at 5000 cells per well in 96-well plates and further cultured for 24 h. The culture media were replaced by 100 μL of fresh culture media containing 10% FBS. […] Following incubation for 24 h, the cell viability was determined by (3-(4,5-dimethylthiazol-2-yl)-5-(3-carboxymethoxyphenyl)-2-(4-sulfophenyl)-2H-tetrazolium) (MTS) assay (Promega Corporation, Madison, Wis., United States of America) according to the manufacturer's instructions. […]
assayEndpoint: IC50 (µM)
Numbers only here, please. The scale is µM.

Tell me reported IC50 for N.N.[Cl][Pt][Cl] [Free cisplatin, cisplatin] , tested with A2780 cells.
4.4
